- protocol_text: solvent given as SMILES
- assay_conditions: in CC#N
metric: fluorescence lifetime (ns)
Could you give me the number in ns? Just the number is fine.

CC(=O)OC[C@H]1O[C@@H](OCC#Cc2ccc(C3=C4C(C)=CC(/C=C/c5ccc(N(C)C)cc5)=[N+]4[B-](F)(F)n4c(/C=C/c5ccc(N(C)C)cc5)cc(C)c43)cc2)[C@H](OC(C)=O)C(OC(C)=O)[C@@H]1OC(C)=O (stereo partly drawn) : 2.4
Cc1cc2nc3c(=O)[nH]c(=O)n(C)c3nc2cc1C : 0.63

Next compound, fluorescence lifetime to be filled in.
In plain terms, C#CCn1c2ccccc2c2cc(/C=C/c3cc(C)c4n3[B-](F)(F)[N+]3=C(C)C=C(C)C3=C4c3ccc(I)cc3)ccc21 has a documented fluorescence lifetime of 4.03
